# Test system: human red blood cells (RBCs)
# Protocol Description: Hemolysis assay
# Type: cell-based
# Condition Set: red cells of human, 1 h, 32
Where a SMILES comes first, the peptide text is derived from it.
Percentage of hemolysis at 32 μg/mL values, listed per item
Readout: Percentage of hemolysis at 32 μg/mL (%)

Compound: CC[C@H](C)[C@H](NC(=O)[C@H](CCCCN)NC(=O)[C@H](CCCCN)NC(=O)[C@@H](NC(=O)[C@@H](NC(=O)[C@H](CC(=O)O)NC(=O)[C@H](Cc1ccccc1)NC(=O)[C@H](CC(C)C)NC(=O)CN)[C@@H](C)CC)[C@@H](C)CC)C(=O)N[C@@H](C)C(=O)N[C@@H](CCC(=O)O)C(=O)N[C@@H](CO)C(=O)N[C@@H](Cc1ccccc1)C(N)=O [aurein 1.2] (H-GLFDIIKKIAESF-NH2)
Study System: human red blood cells (RBCs)
Unit Symbol: %
Recorded Measurement: 0.5
//
Compound: CC[C@H](C)[C@H](NC(=O)[C@H](CCCCN)NC(=O)[C@H](CCCCN)NC(=O)[C@@H](NC(=O)[C@@H](NC(=O)[C@H](CC(=O)O)NC(=O)[C@H](Cc1ccccc1)NC(=O)[C@H](CC(C)C)NC(=O)CN)[C@@H](C)CC)[C@@H](C)CC)C(=O)N[C@@H](C)C(=O)N[C@@H](CCC(=O)O)C(=O)N[C@@H](CO)C(=O)N[C@@H](C)C(N)=O [Peptide F13A] (H-GLFDIIKKIAESA-NH2)
Study System: human red blood cells (RBCs)
Unit Symbol: %
Recorded Measurement: 0.0

* * *

# System: human red blood cells (RBCs)
# Protocol Description: Hemolysis assay
# Assay type: cell-based
# Condition Set: red cells of human, 1 h, 32
Where a SMILES comes first, the peptide text is derived from it.
Readout: Percentage of hemolysis at 32 μg/mL (%)

Compound: CC[C@H](C)[C@H](NC(=O)[C@H](CC(=O)O)NC(=O)[C@H](Cc1ccccc1)NC(=O)[C@H](CC(C)C)NC(=O)CN)C(=O)N[C@H](C(=O)N[C@@H](CCCCN)C(=O)N[C@@H](CCCCN)C(=O)N[C@@H](C)C(=O)N[C@@H](C)C(=O)N[C@@H](CCC(=O)O)C(=O)N[C@@H](CO)C(=O)N[C@@H](Cc1ccccc1)C(N)=O)[C@@H](C)CC [Peptide I9A] (H-GLFDIIKKAAESF-NH2)
Study System: human red blood cells (RBCs)
Recorded Measurement: 0.0
--
Compound: CC[C@H](C)[C@H](NC(=O)[C@H](CCCCN)NC(=O)[C@H](CCCCN)NC(=O)[C@@H](NC(=O)[C@@H](NC(=O)[C@H](CC(=O)O)NC(=O)[C@H](C)NC(=O)[C@H](CC(C)C)NC(=O)CN)[C@@H](C)CC)[C@@H](C)CC)C(=O)N[C@@H](C)C(=O)N[C@@H](CCC(=O)O)C(=O)N[C@@H](CO)C(=O)N[C@@H](Cc1ccccc1)C(N)=O [Peptide F3A] (H-GLADIIKKIAESF-NH2)
Study System: human red blood cells (RBCs)
Recorded Measurement: 0.0

* * *

Parameter Percentage of hemolysis at 4 μg/mL: see the listing below.
# Test system: human red blood cells (RBCs)
# Protocol Description: Hemolysis assay
# Format: cell-based
# Condition Set: red cells of human, 1 h, 4
Where a SMILES comes first, the peptide text is derived from it.
Readout: Percentage of hemolysis at 4 μg/mL (%)

Compound: CC[C@H](C)[C@H](NC(=O)[C@H](C)NC(=O)[C@H](Cc1ccccc1)NC(=O)[C@H](CC(C)C)NC(=O)CN)C(=O)N[C@H](C(=O)N[C@@H](CCCCN)C(=O)N[C@@H](CCCCN)C(=O)N[C@H](C(=O)N[C@@H](C)C(=O)N[C@@H](CCC(=O)O)C(=O)N[C@@H](CO)C(=O)N[C@@H](Cc1ccccc1)C(N)=O)[C@@H](C)CC)[C@@H](C)CC [Peptide D4A] (H-GLFAIIKKIAESF-NH2)
Unit Symbol: %
Recorded Measurement: 0.3
//
Compound: CC[C@H](C)[C@H](NC(=O)[C@H](CCCCN)NC(=O)[C@H](C)NC(=O)[C@@H](NC(=O)[C@@H](NC(=O)[C@H](CC(=O)O)NC(=O)[C@H](Cc1ccccc1)NC(=O)[C@H](CC(C)C)NC(=O)CN)[C@@H](C)CC)[C@@H](C)CC)C(=O)N[C@@H](C)C(=O)N[C@@H](CCC(=O)O)C(=O)N[C@@H](CO)C(=O)N[C@@H](Cc1ccccc1)C(N)=O [Peptide K7A] (H-GLFDIIAKIAESF-NH2)
Unit Symbol: %
Recorded Measurement: 0.0
//
Compound: CC[C@H](C)[C@H](NC(=O)[C@H](CCCCN)NC(=O)[C@H](CCCCN)NC(=O)[C@H](C)NC(=O)[C@@H](NC(=O)[C@H](CC(=O)O)NC(=O)[C@H](Cc1ccccc1)NC(=O)[C@H](CC(C)C)NC(=O)CN)[C@@H](C)CC)C(=O)N[C@@H](C)C(=O)N[C@@H](CCC(=O)O)C(=O)N[C@@H](CO)C(=O)N[C@@H](Cc1ccccc1)C(N)=O [Peptide I6A] (H-GLFDIAKKIAESF-NH2)
Unit Symbol: %
Recorded Measurement: 0.5

* * *

# Test system: human red blood cells (RBCs)
# Protocol Description: Hemolysis assay
# Format: cell-based
# Condition Set: red cells of human, 1 h, 2
Where a SMILES comes first, the peptide text is derived from it.
The reader will find reported Percentage of hemolysis at 2 μg/mL values listed item by item below.

Compound: CC[C@H](C)[C@H](NC(=O)[C@H](CC(=O)O)NC(=O)[C@H](Cc1ccccc1)NC(=O)[C@H](CC(C)C)NC(=O)CN)C(=O)N[C@H](C(=O)N[C@@H](CCCCN)C(=O)N[C@@H](CCCCN)C(=O)N[C@@H](C)C(=O)N[C@@H](C)C(=O)N[C@@H](CCC(=O)O)C(=O)N[C@@H](CO)C(=O)N[C@@H](Cc1ccccc1)C(N)=O)[C@@H](C)CC [Peptide I9A] (H-GLFDIIKKAAESF-NH2)
Percentage of hemolysis at 2 μg/mL: 0.6%
--
Compound: CC[C@H](C)[C@H](NC(=O)[C@H](CCCCN)NC(=O)[C@H](CCCCN)NC(=O)[C@@H](NC(=O)[C@@H](NC(=O)[C@H](CC(=O)O)NC(=O)[C@H](Cc1ccccc1)NC(=O)[C@H](C)NC(=O)CN)[C@@H](C)CC)[C@@H](C)CC)C(=O)N[C@@H](C)C(=O)N[C@@H](CCC(=O)O)C(=O)N[C@@H](CO)C(=O)N[C@@H](Cc1ccccc1)C(N)=O [Peptide L2A] (H-GAFDIIKKIAESF-NH2)
Percentage of hemolysis at 2 μg/mL: 0.6%
--
Compound: CC[C@H](C)[C@H](NC(=O)[C@H](C)NC(=O)[C@H](CC(=O)O)NC(=O)[C@H](Cc1ccccc1)NC(=O)[C@H](CC(C)C)NC(=O)CN)C(=O)N[C@@H](CCCCN)C(=O)N[C@@H](CCCCN)C(=O)N[C@H](C(=O)N[C@@H](C)C(=O)N[C@@H](CCC(=O)O)C(=O)N[C@@H](CO)C(=O)N[C@@H](Cc1ccccc1)C(N)=O)[C@@H](C)CC [Peptide I5A] (H-GLFDAIKKIAESF-NH2)
Percentage of hemolysis at 2 μg/mL: 0.3%

* * *

# Tested on: E. coli ATCC 25922
# Assay type: cell-based, Escherichia coli
# Condition Set: ATCC 25922, 18 h
Where a SMILES comes first, the peptide text is derived from it.
# MIC, E. coli ATCC 25922 per record follows

Molecule: CC[C@H](C)[C@H](NC(=O)[C@H](CC(=O)O)NC(=O)[C@H](Cc1ccccc1)NC(=O)[C@H](CC(C)C)NC(=O)CN)C(=O)N[C@H](C(=O)N[C@@H](CCCCN)C(=O)N[C@@H](CCCCN)C(=O)N[C@@H](C)C(=O)N[C@@H](C)C(=O)N[C@@H](CCC(=O)O)C(=O)N[C@@H](CO)C(=O)N[C@@H](Cc1ccccc1)C(N)=O)[C@@H](C)CC [Peptide I9A] (H-GLFDIIKKAAESF-NH2)
MIC, E. coli ATCC 25922 (µg/mL): 512
--
Molecule: CC[C@H](C)[C@H](NC(=O)[C@H](C)NC(=O)[C@H](CC(=O)O)NC(=O)[C@H](Cc1ccccc1)NC(=O)[C@H](CC(C)C)NC(=O)CN)C(=O)N[C@@H](CCCCN)C(=O)N[C@@H](CCCCN)C(=O)N[C@H](C(=O)N[C@@H](C)C(=O)N[C@@H](CCC(=O)O)C(=O)N[C@@H](CO)C(=O)N[C@@H](Cc1ccccc1)C(N)=O)[C@@H](C)CC [Peptide I5A] (H-GLFDAIKKIAESF-NH2)
MIC, E. coli ATCC 25922 (µg/mL): 256

The measurements presented in this section are drawn from paper PMC6695355.
